The values you see were collected from paper PMC3371634.

Target Entity: ABCB1 (P-glycoprotein) (Homo sapiens)
Sequence (P08183 whole entry): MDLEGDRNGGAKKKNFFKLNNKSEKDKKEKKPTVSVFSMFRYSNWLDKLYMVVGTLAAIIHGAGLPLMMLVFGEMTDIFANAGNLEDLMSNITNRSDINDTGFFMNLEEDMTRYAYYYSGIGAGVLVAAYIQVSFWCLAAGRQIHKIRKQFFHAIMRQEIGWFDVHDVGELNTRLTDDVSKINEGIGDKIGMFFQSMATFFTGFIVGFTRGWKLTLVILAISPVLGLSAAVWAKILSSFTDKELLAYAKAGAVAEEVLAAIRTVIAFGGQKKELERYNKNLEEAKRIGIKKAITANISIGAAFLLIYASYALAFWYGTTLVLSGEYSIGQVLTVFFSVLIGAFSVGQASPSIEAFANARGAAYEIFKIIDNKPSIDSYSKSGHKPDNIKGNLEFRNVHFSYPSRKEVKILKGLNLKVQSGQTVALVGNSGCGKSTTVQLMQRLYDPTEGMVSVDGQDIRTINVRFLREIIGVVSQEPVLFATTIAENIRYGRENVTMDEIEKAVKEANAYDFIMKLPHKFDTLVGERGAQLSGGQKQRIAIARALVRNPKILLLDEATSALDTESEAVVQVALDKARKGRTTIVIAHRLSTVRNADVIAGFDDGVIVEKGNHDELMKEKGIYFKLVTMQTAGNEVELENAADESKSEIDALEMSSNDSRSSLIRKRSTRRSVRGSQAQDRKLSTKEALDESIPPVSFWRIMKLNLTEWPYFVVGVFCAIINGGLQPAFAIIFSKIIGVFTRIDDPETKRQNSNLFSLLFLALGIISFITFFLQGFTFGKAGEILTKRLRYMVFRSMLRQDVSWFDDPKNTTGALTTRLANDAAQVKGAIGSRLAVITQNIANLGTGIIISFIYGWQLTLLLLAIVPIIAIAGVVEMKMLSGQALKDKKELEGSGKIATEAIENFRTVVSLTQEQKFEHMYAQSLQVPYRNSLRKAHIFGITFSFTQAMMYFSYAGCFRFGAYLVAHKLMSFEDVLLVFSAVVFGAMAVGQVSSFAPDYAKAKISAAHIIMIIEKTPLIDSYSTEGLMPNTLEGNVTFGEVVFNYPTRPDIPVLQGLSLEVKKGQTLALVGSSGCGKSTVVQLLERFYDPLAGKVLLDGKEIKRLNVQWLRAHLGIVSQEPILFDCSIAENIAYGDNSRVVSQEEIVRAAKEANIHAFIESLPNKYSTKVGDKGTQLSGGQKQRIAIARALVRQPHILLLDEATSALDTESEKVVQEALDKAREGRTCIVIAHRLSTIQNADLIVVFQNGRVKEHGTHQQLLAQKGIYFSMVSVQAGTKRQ
Procedure Text: ABCB1 ATPase stimulation in plasma membrane vesicles
pEC50: −log10 of the molar value.
Experimental Readout: pEC50

Item [La+3].c1cnc2c(c1)ccc1cccnc12.c1cnc2c(c1)ccc1cccnc12.c1cnc2c(c1)ccc1cccnc12 [KP772] : provide pEC50 < 4.00
